# target: Hepatitis C virus serine protease, NS3/NS4A (Hepatitis C virus, UniProt A3EZI9+D2K2A8)
# Sequence (D2K2A8 whole entry): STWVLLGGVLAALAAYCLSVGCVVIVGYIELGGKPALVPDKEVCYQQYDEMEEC
# Sequence (A3EZI9 whole entry): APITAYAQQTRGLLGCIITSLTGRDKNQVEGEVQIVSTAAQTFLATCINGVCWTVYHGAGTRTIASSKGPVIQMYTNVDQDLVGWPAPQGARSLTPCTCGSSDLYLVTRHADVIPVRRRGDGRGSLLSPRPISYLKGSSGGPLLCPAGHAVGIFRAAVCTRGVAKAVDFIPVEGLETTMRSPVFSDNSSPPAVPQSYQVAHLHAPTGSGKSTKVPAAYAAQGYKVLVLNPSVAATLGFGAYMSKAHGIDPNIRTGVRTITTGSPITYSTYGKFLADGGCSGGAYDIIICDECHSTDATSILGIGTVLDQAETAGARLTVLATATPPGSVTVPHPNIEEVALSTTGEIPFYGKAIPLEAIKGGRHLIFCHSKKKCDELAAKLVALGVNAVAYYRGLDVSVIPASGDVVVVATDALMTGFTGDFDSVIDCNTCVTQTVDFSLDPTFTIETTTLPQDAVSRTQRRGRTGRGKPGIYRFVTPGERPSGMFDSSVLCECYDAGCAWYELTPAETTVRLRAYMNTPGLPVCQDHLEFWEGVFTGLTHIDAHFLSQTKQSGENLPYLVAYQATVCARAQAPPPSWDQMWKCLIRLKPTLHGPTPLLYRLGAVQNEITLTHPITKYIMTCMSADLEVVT
# test protocol: Inhibition of hepatitis C virus (HCV) NS3 protease.
# Assay type: protein-complex assay, Hepacivirus hominis
pIC50: −log10 of the molar value.
This listing pairs substances with measured pIC50.

substance	pIC50
Ac-DDIVPA-OH	3.12
Ac-DDIVPL-OH	3.10

* * *

# target: Neutrophil elastase (Homo sapiens, UniProt P08246)
# Sequence (P08246 whole entry): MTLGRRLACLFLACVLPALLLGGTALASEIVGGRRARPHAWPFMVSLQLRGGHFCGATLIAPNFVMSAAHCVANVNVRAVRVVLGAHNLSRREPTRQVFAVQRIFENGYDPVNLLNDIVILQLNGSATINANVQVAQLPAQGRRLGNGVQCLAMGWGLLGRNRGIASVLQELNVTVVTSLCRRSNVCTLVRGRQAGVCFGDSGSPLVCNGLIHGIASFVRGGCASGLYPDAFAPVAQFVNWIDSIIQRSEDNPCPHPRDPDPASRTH
# test protocol: Compound was tested for inhibition of human leucocyte elastase (HLE)
Square brackets hold non-standard residues; d marks the D form. Peptide text beside a SMILES is read from it. * marks the point of attachment. Nva = CCC[C@H](N)C(=O)O; CF3 = FC(F)(F)*

molecule	IC50
CCC[C@H](NC(=O)[C@@H]1CCCN1C(=O)[C@@H](NC(=O)[C@@H](NC(=O)[C@@H](CC(=O)O)NC(=O)[C@H](CC(=O)O)NC(C)=O)[C@@H](C)CC)C(C)C)C(=O)O (Ac-D[dD]IVP[Nva]-OH)	> 1000 µM
CCC[C@H](NC(=O)[C@@H]1CCCN1C(=O)[C@@H](NC(=O)[C@@H](NC(=O)[C@@H](CC(=O)O)NC(=O)[C@H](CC(=O)O)NC(C)=O)[C@@H](C)CC)C(C)C)C(=O)C(F)(F)F (Ac-D[dD]IVP[Nva]-CF3)	< 0.06 µM
CCC[C@@H](NC(=O)[C@@H]1CCCN1C(=O)[C@@H](NC(=O)[C@@H](NC(=O)[C@@H](CC(=O)O)NC(=O)[C@H](CC(=O)O)NC(C)=O)[C@@H](C)CC)C(C)C)C(=O)OCc1ccccc1	> 1000 µM
